Below are compounds with their Ki as measured on B1 bradykinin receptor (Homo sapiens).
Sequence (P46663 whole entry): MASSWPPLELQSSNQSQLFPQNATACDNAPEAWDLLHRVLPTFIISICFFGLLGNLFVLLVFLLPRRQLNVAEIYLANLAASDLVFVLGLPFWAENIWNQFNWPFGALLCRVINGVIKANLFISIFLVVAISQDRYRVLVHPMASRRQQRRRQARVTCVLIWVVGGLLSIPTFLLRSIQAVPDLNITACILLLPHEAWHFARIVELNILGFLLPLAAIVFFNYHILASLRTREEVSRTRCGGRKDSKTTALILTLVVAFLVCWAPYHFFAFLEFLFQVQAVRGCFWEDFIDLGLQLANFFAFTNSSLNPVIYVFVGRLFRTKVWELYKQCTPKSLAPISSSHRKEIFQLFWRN
Please reply with the bare figure in nM and do not write the unit itself.

Worked examples, 6 compounds total:
O=C(CC1Cc2ccccc2CN1S(=O)(=O)c1ccc(Cl)c(Cl)c1)NCCc1ccc(C2=NCCN2)cc1 (stereo unspecified) : 481
O=C(CC1c2ccccc2CCN1S(=O)(=O)c1ccc(Cl)c(Cl)c1)NCCc1ccc(C2=NCCN2)cc1 (stereo unspecified) : 2.2
Cc1ccc(S(=O)(=O)N2c3ccccc3-c3ccccc3C2CC(=O)NCCc2ccc(C3=NCCN3)cc2)cc1 (stereo unspecified) : 4.7
O=C(CC1CCc2ccccc2N1S(=O)(=O)c1ccc(Cl)c(Cl)c1)Nc1ccc(N2CCC(N3CCCCC3)CC2)cc1 (stereo unspecified) : 628
O=C(CC1CCc2ccccc2N1S(=O)(=O)c1ccc(Cl)c(Cl)c1)N[C@H]1CC[C@H](CCC2=NCCN2)CC1 (stereo partly specified) : 4.3
O=C(CC1c2ccccc2CCN1S(=O)(=O)c1ccc(Cl)c(Cl)c1)N[C@H]1CC[C@H](CCC2=NCCN2)CC1 (stereo partly specified) : 1

Record O=C(CC1c2ccccc2CCN1S(=O)(=O)c1ccc(Cl)c(Cl)c1)N1CCC(Cc2ccc(C3=NCCN3)cc2)CC1 (stereo unspecified) / B1 bradykinin receptor (Homo sapiens), Ki recorded as 3.8

Record O=C(CC1CCc2ccccc2N1S(=O)(=O)c1ccc(Cl)c(Cl)c1)NCCN1CCN(c2ccncc2)CC1 (stereo unspecified) / B1 bradykinin receptor (Homo sapiens), Ki recorded as 166

Record O=C(CC1CCc2ccccc2N1S(=O)(=O)c1ccc(Cl)c(Cl)c1)NCCc1ccc(C2=NCCN2)cc1 (stereo unspecified) / B1 bradykinin receptor (Homo sapiens), Ki recorded as 6.3

Record O=C(CC1c2ccccc2CCN1S(=O)(=O)c1ccc(Cl)c(Cl)c1)Nc1ccc(N2CCC(N3CCCCC3)CC2)cc1 (stereo unspecified) / B1 bradykinin receptor (Homo sapiens), Ki recorded as 138

Record Cc1cc(C)c(S(=O)(=O)N2c3ccccc3-c3ccccc3C2CC(=O)NCCc2ccc(C3=NCCN3)cc2)cc1C (stereo unspecified) / B1 bradykinin receptor (Homo sapiens), Ki recorded as 2.9
